meta.source: ChEMBL document CHEMBL4257571

measurement description: Metabolic stability of mouse liver microsomes assessed as parent compound remaining at 0.1 uM after 60 mins in presence of NADPH by LC/MS/MS analysis
Format: ADME, microsome
measurement setup: read-out: Stability
Heads up, the class ranges for remaining at 1 h, 0.1 µM are lo = under 40%, med = from 40% up to 60%, hi = 60% and over

Below, 3 compounds whose answers are already recorded.
compound=Clc1cc(-n2ccnc2)cnc1-c1ccc(-c2nnn[nH]2)cc1 class_label=lo
compound=Cc1cc(-n2ccnc2)cnc1-c1ccc(-c2nnn[nH]2)cc1 class_label=lo
compound=CCc1cc(-n2ccnc2)ccc1-c1ccc(-c2nnn[nH]2)cc1 class_label=med

Task: Quick check: band for `Cc1cc(-n2ccnc2)cnc1-c1ccc(-c2nnn[nH]2)cc1F`
Output: med

###

assayed system: hERG (KCNH2) (Homo sapiens, UniProt Q12809)
Sequence (Q12809 whole entry): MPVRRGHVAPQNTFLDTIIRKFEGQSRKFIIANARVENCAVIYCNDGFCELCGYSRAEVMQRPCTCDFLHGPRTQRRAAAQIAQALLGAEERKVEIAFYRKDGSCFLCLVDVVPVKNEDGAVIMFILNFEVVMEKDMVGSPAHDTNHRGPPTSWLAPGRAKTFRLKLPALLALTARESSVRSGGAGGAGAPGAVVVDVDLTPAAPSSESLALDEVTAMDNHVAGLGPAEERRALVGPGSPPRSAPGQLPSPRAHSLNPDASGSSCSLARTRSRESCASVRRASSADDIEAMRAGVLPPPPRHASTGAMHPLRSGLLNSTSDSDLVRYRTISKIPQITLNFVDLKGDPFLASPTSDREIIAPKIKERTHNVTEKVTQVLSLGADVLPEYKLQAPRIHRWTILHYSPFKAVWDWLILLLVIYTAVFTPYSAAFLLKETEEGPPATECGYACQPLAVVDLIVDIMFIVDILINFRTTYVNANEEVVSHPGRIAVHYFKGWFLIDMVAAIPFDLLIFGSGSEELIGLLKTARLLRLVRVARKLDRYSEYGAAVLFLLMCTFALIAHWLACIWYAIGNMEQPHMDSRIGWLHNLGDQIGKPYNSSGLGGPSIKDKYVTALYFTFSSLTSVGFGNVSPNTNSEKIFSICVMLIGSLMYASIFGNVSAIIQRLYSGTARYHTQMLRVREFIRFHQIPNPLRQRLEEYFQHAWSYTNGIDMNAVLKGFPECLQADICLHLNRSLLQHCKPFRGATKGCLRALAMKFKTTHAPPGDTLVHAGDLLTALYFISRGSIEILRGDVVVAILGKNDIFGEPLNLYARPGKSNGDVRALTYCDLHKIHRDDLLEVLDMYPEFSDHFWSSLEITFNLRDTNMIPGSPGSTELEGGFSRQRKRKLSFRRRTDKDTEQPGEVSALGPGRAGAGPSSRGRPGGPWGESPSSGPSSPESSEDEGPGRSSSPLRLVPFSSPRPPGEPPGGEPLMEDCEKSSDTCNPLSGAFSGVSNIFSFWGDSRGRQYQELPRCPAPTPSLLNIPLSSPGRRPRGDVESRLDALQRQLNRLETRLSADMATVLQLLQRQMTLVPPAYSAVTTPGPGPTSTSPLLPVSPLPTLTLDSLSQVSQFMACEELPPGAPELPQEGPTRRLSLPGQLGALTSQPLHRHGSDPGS
measurement description: Inhibition of human ERG at 10 uM by patch clamp assay relative to control
value kind: inhibition at 10 µM (%)
Kindly provide the numeric value in % only, without the unit symbol.

Task: For the compound `Clc1cc(-c2nnn[nH]2)ccc1-c1ccc(-n2ccnc2)cc1` , give its measured inhibition at 10 µM value.
Output: 11

###

measurement description: Protein binding in mouse plasma at 10 uM by LC/MS/MS based equilibrium dialysis analysis
Format: ADME, cell-free
measurement setup: read-out: PPB (converted)
value kind: fraction unbound at 10 µM
Write the number on its own, no unit after it.

Task: For the compound `Clc1cc(-c2nnn[nH]2)ccc1-c1ccc(-n2ccnc2)cc1` , give its measured fraction unbound at 10 µM value.
Output: 0.015

###

assayed system: CYP3A4 (Homo sapiens, UniProt P08684)
Sequence (P08684 whole entry): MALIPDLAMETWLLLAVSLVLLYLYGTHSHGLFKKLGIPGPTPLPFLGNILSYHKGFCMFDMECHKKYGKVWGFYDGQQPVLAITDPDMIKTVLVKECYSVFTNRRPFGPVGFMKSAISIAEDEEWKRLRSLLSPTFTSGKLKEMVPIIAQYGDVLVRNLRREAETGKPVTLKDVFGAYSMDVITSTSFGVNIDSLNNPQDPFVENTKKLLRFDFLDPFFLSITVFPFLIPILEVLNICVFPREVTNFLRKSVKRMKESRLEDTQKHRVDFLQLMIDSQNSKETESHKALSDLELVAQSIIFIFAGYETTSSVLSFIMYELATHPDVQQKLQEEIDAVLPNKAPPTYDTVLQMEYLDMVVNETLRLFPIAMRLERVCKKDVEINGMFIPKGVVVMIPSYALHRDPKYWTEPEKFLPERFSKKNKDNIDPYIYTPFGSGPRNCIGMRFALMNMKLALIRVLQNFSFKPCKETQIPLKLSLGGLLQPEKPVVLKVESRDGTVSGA
measurement description: Inhibition of CYP3A4 in human liver microsomes at 10 uM after 20 mins in presence of NADPH by LC/MS/MS analysis relative to control
Format: ADME
measurement setup: liver microsomes
inhibition at 20 min, 10 µM reference
Kindly provide the numeric value in % only, without the unit symbol.

Check out these entries, answers already filled in.
compound=Cc1cc(-n2ccnc2)cnc1-c1ccc(-c2nnn[nH]2)cc1F measurement=19
compound=Cc1cc(-n2ccnc2)ccc1-c1ccc(-c2nnn[nH]2)cc1 measurement=26
compound=CCc1cc(-n2ccnc2C)ccc1-c1ccc(-c2nnn[nH]2)cc1 measurement=18
compound=CCc1cc(-n2ccnc2)ccc1-c1ccc(-c2nnn[nH]2)cc1F measurement=30
compound=CCc1cc(-n2ccnc2)ccc1-c1ccc(-c2nnn[nH]2)cc1 measurement=33

# next compound below
Task: Consider the compound `Cc1cc(-n2ccnc2)cnc1-c1ccc(-c2nnn[nH]2)cc1` tested on CYP3A4 (Homo sapiens, UniProt P08684); state its inhibition at 20 min, 10 µM.
Output: 17

###

measurement description: AUC (0 to 24 hrs) in C57/BL6 mouse at 30 mg/kg, po
Assay type: ADME, organism-based
Design: time < 24 hr, dose 30 mg/kg, route oral
measurement setup: in vivo
AUC(0-t) at 24 h reference
# answer = value followed by unit

compound=Cc1cc(-n2ccnc2)cnc1-c1ccc(-c2nnn[nH]2)cc1F value_kind="AUC(0-t) at 24 h" measurement="14200 ng·h/mL"

# next compound below
Task: For the compound `Clc1cc(-c2nnn[nH]2)ccc1-c1ccc(-n2ccnc2)cc1` , give its measured AUC(0-t) at 24 h value.
Output: 69900 ng·h/mL

###

assayed system: CYP2D6 (Homo sapiens)
Sequence (P10635 whole entry): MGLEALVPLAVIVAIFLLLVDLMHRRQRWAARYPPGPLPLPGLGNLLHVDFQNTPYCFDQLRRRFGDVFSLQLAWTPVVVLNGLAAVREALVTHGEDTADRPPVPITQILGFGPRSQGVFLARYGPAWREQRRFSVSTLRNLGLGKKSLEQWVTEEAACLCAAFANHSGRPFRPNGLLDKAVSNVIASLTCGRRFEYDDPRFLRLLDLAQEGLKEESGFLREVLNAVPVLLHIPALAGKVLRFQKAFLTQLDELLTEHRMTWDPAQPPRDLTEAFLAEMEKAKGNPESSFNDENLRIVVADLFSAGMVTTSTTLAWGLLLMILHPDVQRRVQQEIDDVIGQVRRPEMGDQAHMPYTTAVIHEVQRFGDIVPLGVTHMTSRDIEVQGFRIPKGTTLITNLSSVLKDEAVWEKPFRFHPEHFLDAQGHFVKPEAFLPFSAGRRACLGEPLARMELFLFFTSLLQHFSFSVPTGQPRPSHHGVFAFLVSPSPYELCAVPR
measurement description: Inhibition of CYP2D6 in human liver microsomes at 10 uM after 20 mins in presence of NADPH by LC/MS/MS analysis relative to control
Assay type: ADME
measurement setup: liver microsomes
inhibition at 20 min, 10 µM reference

compound=Clc1cc(-n2ccnc2)cnc1-c1ccc(-c2nnn[nH]2)cc1 value_kind="inhibition at 20 min, 10 µM" measurement=11%
compound=Cc1cc(-n2ccnc2)ccc1-c1ccc(-c2nnn[nH]2)cc1Cl value_kind="inhibition at 20 min, 10 µM" measurement=63%
compound=c1cn(-c2ccc(-c3ccc(-c4nn[nH]n4)cc3)cc2)cn1 value_kind="inhibition at 20 min, 10 µM" measurement=73%
compound=Cc1cc(-n2ccnc2)cnc1-c1ccc(-c2nnn[nH]2)cc1 value_kind="inhibition at 20 min, 10 µM" measurement=9%
compound=CCc1cc(-n2ccnc2)ccc1-c1ccc(-c2nnn[nH]2)cc1F value_kind="inhibition at 20 min, 10 µM" measurement=52%
compound=Cc1cc(-n2ccnc2)ccc1-c1ccc(-c2nnn[nH]2)cc1 value_kind="inhibition at 20 min, 10 µM" measurement=44%

Task: Consider the compound `Clc1cc(-c2nnn[nH]2)ccc1-c1ccc(-n2ccnc2)cc1` tested on CYP2D6 (Homo sapiens); state its inhibition at 20 min, 10 µM.
Output: 52%

Task: Consider the compound `CCc1cc(-n2ccnc2)ccc1-c1ccc(-c2nnn[nH]2)cc1` tested on CYP2D6 (Homo sapiens); state its inhibition at 20 min, 10 µM.
Output: 37%

Task: Consider the compound `Cc1cc(-n2ccnc2)cnc1-c1ccc(-c2nnn[nH]2)cc1F` tested on CYP2D6 (Homo sapiens); state its inhibition at 20 min, 10 µM.
Output: 12%

Task: Consider the compound `Cc1cc(-n2ccnc2)ccc1-c1ccc(C(=O)O)cc1` tested on CYP2D6 (Homo sapiens); state its inhibition at 20 min, 10 µM.
Output: 14%

Task: Consider the compound `Cc1nccn1-c1ccc(-c2ccc(-c3nnn[nH]3)cc2)cc1` tested on CYP2D6 (Homo sapiens); state its inhibition at 20 min, 10 µM.
Output: 37%

###

assayed system: All-trans-retinol dehydrogenase [NAD(+)] ADH1B (Homo sapiens)
Sequence (P00325 whole entry): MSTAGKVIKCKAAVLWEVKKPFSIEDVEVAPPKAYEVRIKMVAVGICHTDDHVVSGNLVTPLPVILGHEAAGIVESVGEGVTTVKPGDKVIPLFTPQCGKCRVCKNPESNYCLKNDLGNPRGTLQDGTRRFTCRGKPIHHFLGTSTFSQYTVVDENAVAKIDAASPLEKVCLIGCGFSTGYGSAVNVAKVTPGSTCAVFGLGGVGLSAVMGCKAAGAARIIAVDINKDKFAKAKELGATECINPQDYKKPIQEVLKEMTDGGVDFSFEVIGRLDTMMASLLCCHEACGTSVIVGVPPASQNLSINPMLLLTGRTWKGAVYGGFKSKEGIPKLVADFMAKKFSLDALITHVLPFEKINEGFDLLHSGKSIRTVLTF
measurement description: Inhibition of ADH1B (unknown origin) assessed as reduction in NADH production by spectrophotometric analysis
value kind: IC50

Task: For the molecule `Clc1cc(-c2nnn[nH]2)ccc1-c1ccc(-n2ccnc2)cc1` , give its measured IC50 value.
Output: 54 µM

###

assayed system: Alcohol dehydrogenase class-3 (Homo sapiens)
Sequence (P11766 whole entry): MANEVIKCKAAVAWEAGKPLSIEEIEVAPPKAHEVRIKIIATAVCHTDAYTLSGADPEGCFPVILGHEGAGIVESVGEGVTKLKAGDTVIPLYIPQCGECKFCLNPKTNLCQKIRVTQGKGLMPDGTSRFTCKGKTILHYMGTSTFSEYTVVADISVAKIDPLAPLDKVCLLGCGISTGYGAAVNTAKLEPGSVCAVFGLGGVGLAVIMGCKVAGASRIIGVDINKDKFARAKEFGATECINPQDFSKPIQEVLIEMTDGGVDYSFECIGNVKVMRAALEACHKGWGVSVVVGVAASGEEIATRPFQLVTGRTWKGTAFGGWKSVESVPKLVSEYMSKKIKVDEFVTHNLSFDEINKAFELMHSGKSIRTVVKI
measurement description: Inhibition of human GSNOR assessed as reduction in NADH consumption after 3 mins by spectrophotometric analysis
pIC50 reference
To interpret pIC50, take it as minus log10 of a concentration measured in moles per litre.

Check out these entries, answers already filled in.
compound=O=C(O)c1ccc(-c2ccc(-n3ccnc3)cc2)c(C(F)(F)F)c1 measurement=7.42
compound=c1cn(-c2ccc(-c3ccc(-c4nnn[nH]4)cc3)nc2)cn1 measurement=7.49
compound=Cc1cc(-c2nnn[nH]2)ccc1-c1ccc(-n2ccnc2)cn1 measurement=7.36
compound=O=C(O)c1ccc(-c2ncc(-n3ccnc3)cc2Cl)cc1 measurement=7.05

Task: Consider the compound `CCc1cc(-n2ccnc2)cnc1-c1ccc(-c2nnn[nH]2)cc1` tested on Alcohol dehydrogenase class-3 (Homo sapiens); state its pIC50.
Output: 7.18

Task: Consider the compound `Cc1cc(-n2ccnc2)ccc1-c1ccc(C(=O)O)cc1` tested on Alcohol dehydrogenase class-3 (Homo sapiens); state its pIC50.
Output: 7.70

Task: Consider the compound `O=C(O)c1ccc(-c2ccc(-n3ccnc3)cc2)c(F)c1` tested on Alcohol dehydrogenase class-3 (Homo sapiens); state its pIC50.
Output: 7.54

Task: Consider the compound `c1cn(-c2cnc(-c3ccc(-c4nnn[nH]4)cc3)c(C3CCCCC3)c2)cn1` tested on Alcohol dehydrogenase class-3 (Homo sapiens); state its pIC50.
Output: 7.13

Task: Consider the compound `c1cc(-c2nn[nH]n2)ccc1-c1ccc(-c2nnn[nH]2)cc1` tested on Alcohol dehydrogenase class-3 (Homo sapiens); state its pIC50.
Output: 5.48

Task: Consider the compound `Clc1cc(-c2nnn[nH]2)ccc1-c1ccc(-n2ccnc2)cn1` tested on Alcohol dehydrogenase class-3 (Homo sapiens); state its pIC50.
Output: 6.51

Task: Consider the compound `Fc1cc(-c2nnn[nH]2)ccc1-c1ncc(-n2ccnc2)cc1Cl` tested on Alcohol dehydrogenase class-3 (Homo sapiens); state its pIC50.
Output: 7.57

Task: Consider the compound `CCc1cc(-n2ccnc2)cnc1-c1ccc(-c2nnn[nH]2)cc1F` tested on Alcohol dehydrogenase class-3 (Homo sapiens); state its pIC50.
Output: 7.21

Task: Consider the compound `Cc1cc(-n2ccnc2)ccc1-c1ccc(-c2nnn[nH]2)cc1` tested on Alcohol dehydrogenase class-3 (Homo sapiens); state its pIC50.
Output: 7.85

###

measurement description: Tmax in C57/BL6 mouse at 30 mg/kg, po
Type: ADME, organism-based
measurement setup: in vivo
value kind: Tmax (h)
Kindly provide the numeric value in h only, without the unit symbol.

compound=Clc1cc(-c2nnn[nH]2)ccc1-c1ccc(-n2ccnc2)cc1 measurement=2

# next compound below
Task: For the compound `Cc1cc(-n2ccnc2)cnc1-c1ccc(-c2nnn[nH]2)cc1F` , give its measured Tmax value.
Output: 0.5

###

assayed system: CYP2C19 (Homo sapiens, UniProt P33261)
Sequence (P33261 whole entry): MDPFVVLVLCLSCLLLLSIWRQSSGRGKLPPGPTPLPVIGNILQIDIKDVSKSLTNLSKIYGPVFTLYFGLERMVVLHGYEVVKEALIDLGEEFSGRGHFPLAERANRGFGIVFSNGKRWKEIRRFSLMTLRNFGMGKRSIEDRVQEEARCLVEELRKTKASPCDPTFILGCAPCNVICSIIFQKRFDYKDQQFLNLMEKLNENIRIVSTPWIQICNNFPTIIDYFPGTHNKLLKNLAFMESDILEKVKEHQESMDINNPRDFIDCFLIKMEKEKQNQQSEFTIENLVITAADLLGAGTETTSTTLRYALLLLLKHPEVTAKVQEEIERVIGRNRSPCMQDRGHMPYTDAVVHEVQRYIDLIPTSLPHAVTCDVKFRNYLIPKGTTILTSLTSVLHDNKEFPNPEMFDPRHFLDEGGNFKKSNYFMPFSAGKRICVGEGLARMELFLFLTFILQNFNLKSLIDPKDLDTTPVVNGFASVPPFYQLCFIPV
measurement description: Inhibition of CYP2C19 in human liver microsomes at 10 uM after 40 mins in presence of NADPH by LC/MS/MS analysis relative to control
Format: ADME
Label Met when inhibition at 40 min, 10 µM is at or above 70%; anything below gets Not met.

Below, 3 compounds whose answers are already recorded.
compound=Clc1cc(-c2nnn[nH]2)ccc1-c1ccc(-n2ccnc2)cc1 class_label=Met
compound=Cc1cc(-n2ccnc2)ccc1-c1ccc(-c2nnn[nH]2)cc1Cl class_label=Met
compound=CCc1cc(-n2ccnc2)ccc1-c1ccc(-c2nnn[nH]2)cc1F class_label=Met

Now let's try a different one.
Task: Hi team, for `CCc1cc(-n2ccnc2C)ccc1-c1ccc(-c2nnn[nH]2)cc1` , is the recorded inhibition at 40 min, 10 µM at or above 70%?
Output: Not met
